Every entry's value here was drawn from the supplement of paper PMC10307832.

Test system: LU99A
experimentalDetails: relative viability (nuclei count vs DMSO), 5 days (fraction); higher = more cells survive
conditionInfo: first compound 0.01 µM
Under this convention, Fulfilled denotes relative viability strictly below 0.4 and Not fulfilled denotes relative viability at or above 0.4.

Example results:
{"columns": ["compound", "assignedCategory"],
 "data": [
  ["CCN(CC)CCCCNc1ncc2cc(-c3cc(OC)cc(OC)c3)c(NC(=O)NC(C)(C)C)nc2n1 + C[C@@H](Oc1cc(-c2cnn(C3CCNCC3)c2)cnc1N)c1c(Cl)ccc(F)c1Cl [Crizotinib] (partner 1 µM)", "Not fulfilled"],
  ["CCN(CC)CCCCNc1ncc2cc(-c3cc(OC)cc(OC)c3)c(NC(=O)NC(C)(C)C)nc2n1 + CC(=O)c1c(C)c2cnc(Nc3ccc(N4CCNCC4)cn3)nc2n(C2CCCC2)c1=O [Palbociclib] (partner 0.5 µM)", "Fulfilled"],
  ["O=c1cc(N2CCOCC2)oc2c(-c3cccc4c3sc3ccccc34)cccc12 + Cc1nc(NC(=O)N2CCC[C@H]2C(N)=O)sc1-c1ccnc(C(C)(C)C(F)(F)F)c1 [Alpelisib] (partner 2 µM)", "Not fulfilled"],
  ["CCN(CC)CCCCNc1ncc2cc(-c3cc(OC)cc(OC)c3)c(NC(=O)NC(C)(C)C)nc2n1 + CCNC(=O)c1noc(-c2cc(C(C)C)c(O)cc2O)c1-c1ccc(CN2CCOCC2)cc1 [Luminespib] (partner 0.01 µM)", "Fulfilled"]
]}

Below: the item to evaluate.
input: Quick check: does CCN(CC)CCCCNc1ncc2cc(-c3cc(OC)cc(OC)c3)c(NC(=O)NC(C)(C)C)nc2n1 + CC(C)C[C@H](NC(=O)[C@H](Cc1ccccc1)NC(=O)c1cnccn1)B(O)O [Bortezomib] (partner 0.002 µM) have relative viability under 0.4?
output: Not fulfilled
